target: T1, biotinylated Aβ1-40 peptide (biotinylated (N-biotinylated in Example 7)); test: SPR, Fab over Aβ1-40 on SA chip; kon may be assumed = 9TL (footnote 2)
T1 construct: captured on streptavidin (SA) chip; also called Biotinylated Aβ peptide 1-40; Aβ1-40 on SA chip
T1 sequence (peptide, as listed by the source): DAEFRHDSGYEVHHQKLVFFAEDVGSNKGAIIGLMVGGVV
Measurement Kind: kon (M⁻¹ s⁻¹)
Provide only the numeric value, understood in M⁻¹ s⁻¹.

9TL variant M46 Fab (Fab, V domains shown, Fab; human IgG2 CH1 and kappa CL) VH: QVQLVQSGAEVKKPGASVKVSCKASGYYTEAYYIHWVRQAPGQGLEWMGRIDPATGNTKYAPRLQDRVTMTRDTSTSTVYMELSSLRSEDTAVYYCASLYSLPCYWGQGTTVTVSS VL: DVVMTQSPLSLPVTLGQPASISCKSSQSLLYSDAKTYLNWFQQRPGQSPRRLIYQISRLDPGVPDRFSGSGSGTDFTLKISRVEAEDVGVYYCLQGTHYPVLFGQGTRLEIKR : 318000

Now look at this entry.
Task: Recall and state the measured kon for 9TL variant M2 Fab (Fab, V domains shown, Fab; human IgG2 CH1 and kappa CL) VH: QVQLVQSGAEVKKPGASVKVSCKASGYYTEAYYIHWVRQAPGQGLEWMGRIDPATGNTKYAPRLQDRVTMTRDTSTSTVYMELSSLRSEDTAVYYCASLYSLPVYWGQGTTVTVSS VL: DVVMTQSPLSLPVTLGQPASISCKSSQSLLYSDAKTYLNWFQQRPGQSPRRLIYQISRLDPGVPDRFSGSGSGTDFTLKISRVEAEDVGVYYCNQGTHYPVLFGQGTRLEIKR .
Output: 318000
